# tgt: Relaxin receptor 2 (Homo sapiens)
# test-method-notes: qHTS Assay for Agonists of the Relaxin Receptor RXFP1: RXFP2 Hit Validation; also: nearly all actives have a fitted effect of over 65% in size
# particulars: HEK293 RXFP2 cAMP TR-FRET, 30 min; series mostly up to 115 µM
Results filed as inconclusive are left out. Calls of active or inactive are those of the source. Calls follow the shape of the dose curve; as a rule, active = well fitted activation curve with a large enough effect; inconclusive = small, poorly fitted or top-dose-only effect; inactive = flat fitted curve, though single readings scatter.
Possible outcomes: active, inactive

1) Cc1ccc2[nH]c3c(=S)nc[nH]c3c2c1    active
2) COc1ccc(Cl)cc1-c1n[nH]c(=S)o1    active
3) O=C(NC1CCCCCC1)c1cc2c(=O)n3ccccc3nc2s1    active
4) Cc1cccc(C(=O)Nc2ccccc2C(=O)NCc2ccco2)c1    inactive
5) Cc1cc(C)nc(NS(=O)(=O)c2ccc(N3C(=O)c4ccccc4C3=O)cc2)n1    active
6) CC1(C)Cc2c(sc3c2c2ncnn2c2nnc(SCC(=O)NCc4ccco4)n32)CO1    active
7) CCNc1nc(NCC)nc(N(C)/N=C/c2ccco2)n1    inactive
8) CCN(CC)S(=O)(=O)c1ccc(C)c(NC(=O)Cn2cnc3cc([N+](=O)[O-])ccc3c2=O)c1    active
9) Cc1ccccc1NC(=O)CNc1ccccc1C(=O)NCc1ccco1    inactive
10) O=C(Nc1ccccc1C(=O)NCc1ccco1)c1ccco1    inactive
11) CN(CC(=O)Nc1ccccc1Cl)C(=O)COC(=O)Cc1c(F)cccc1Cl    inactive
12) Nc1nnc(CC(=O)N/N=C/c2ccc(-c3ccc(Cl)cc3Cl)o2)s1    inactive
13) C=CCOc1c(Cl)cc(CNc2ccc(N(C)C)cc2)cc1OC    inactive
14) CCN(c1ccccc1)S(=O)(=O)c1ccc(OC)c(NC(=O)C2CC(=O)N(Cc3ccccc3)C2)c1 (configuration not stated)    inactive
15) Cc1ccccc1NC(=O)c1ccccc1NC(=O)c1ccco1    inactive
16) Cc1cccn2c(=O)c(/C=C3\SC(=S)NC3=O)c(NCCCN3CCOCC3)nc12    active
17) Cc1cccc2cc(C#N)c(SCC(=O)NCc3cccs3)nc12    active
18) COc1ccccc1CNS(=O)(=O)c1cc(CN2C(=O)c3cccnc3C2=O)ccc1OC    active
19) COc1cccc(CNC(=O)c2ccc(CS(=O)Cc3ccc(C)cc3)o2)c1 (configuration not stated)    inactive
20) O=C(Nc1ccccc1C(=O)NCCc1ccc(O)cc1)c1ccco1    inactive
21) Cc1cc(C)c(C(=O)CSc2n[nH]c(=O)n2C2CC2)cc1C    inactive
22) CC(=O)C1C(c2ccccc2)c2c(noc2C)CC1(C)O (configuration not stated)    inactive

----------
# tgt: Relaxin receptor 2 (Homo sapiens) (UniProt Q8WXD0)
# Sequence (Q8WXD0 whole entry, looked up): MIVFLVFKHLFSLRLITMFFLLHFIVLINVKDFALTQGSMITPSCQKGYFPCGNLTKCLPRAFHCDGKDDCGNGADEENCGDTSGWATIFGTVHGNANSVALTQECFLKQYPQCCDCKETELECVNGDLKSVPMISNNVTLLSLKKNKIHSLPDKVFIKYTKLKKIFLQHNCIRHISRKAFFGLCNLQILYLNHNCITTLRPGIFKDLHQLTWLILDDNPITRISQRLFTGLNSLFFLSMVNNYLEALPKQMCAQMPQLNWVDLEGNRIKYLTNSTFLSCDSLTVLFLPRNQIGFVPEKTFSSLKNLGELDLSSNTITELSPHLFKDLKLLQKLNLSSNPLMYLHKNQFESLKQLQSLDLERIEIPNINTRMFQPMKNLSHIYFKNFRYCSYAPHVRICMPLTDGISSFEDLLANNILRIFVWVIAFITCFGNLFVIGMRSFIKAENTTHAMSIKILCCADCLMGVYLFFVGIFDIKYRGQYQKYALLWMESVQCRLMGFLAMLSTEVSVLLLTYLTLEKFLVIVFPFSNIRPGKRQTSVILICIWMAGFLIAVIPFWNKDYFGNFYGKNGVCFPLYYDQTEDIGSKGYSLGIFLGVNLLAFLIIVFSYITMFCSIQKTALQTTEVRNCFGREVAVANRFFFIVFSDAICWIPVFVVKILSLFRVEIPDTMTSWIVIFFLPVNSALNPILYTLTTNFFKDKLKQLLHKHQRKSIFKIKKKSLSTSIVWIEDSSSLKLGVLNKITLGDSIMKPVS
# test-method-notes: qHTS Assay for Agonists of the Relaxin Receptor RXFP1: RXFP2 Hit Validation; also: nearly all actives have a fitted effect of over 65% in size; also: potency is read from the fitted curve at half-maximal effect
# particulars: HEK293 RXFP2 cAMP TR-FRET, 30 min; series mostly up to 115 µM
Records with an inconclusive call do not appear. Calls of active or inactive are those of the source. Calls come from the whole dose curve; as a rule, active = well fitted activation curve with a large enough effect; inconclusive = small, poorly fitted or top-dose-only effect; inactive = flat fitted curve, though single readings scatter.
measured-parameter: Potency

1) COc1cccc(C(=O)CSc2nnc(-c3cc(OC)cc(OC)c3)o2)c1    10.9 µM (active)
2) O=C(Nc1ccccc1C(=O)NCCc1ccccc1)c1ccco1    inactive
3) O=C(O)CNC(=O)c1ccccc1NC(=O)c1ccco1    inactive
4) CCCN(CCC)S(=O)(=O)c1cc(CN2C(=O)c3cccnc3C2=O)ccc1OC    24.5 µM (active)
5) COC(=O)Cn1cnc2c(C#N)c3n(c2c1=O)CCCC3    30.9 µM (active)
6) COC(=O)c1nc2ccc(N3CCOCC3)cc2c(C)c1C(=O)OC    38.9 µM (active)
7) CCC(=O)Nc1ccc(-n2nnnc2SCC(=O)NNC(=O)c2ccco2)cc1    inactive
8) CCN(CC)C(=O)c1cc(Cl)ccc1NC(=O)c1ccco1    inactive
9) Cc1noc(NS(=O)(=O)c2ccc(N3Cc4ccccc4C3=O)cc2)c1C    11.9 µM (active)
10) COc1ccc(CNC(=O)CN2C(=O)NC(C)(c3cccc(Br)c3)C2=O)cc1 (stereo not given)    inactive
11) O=[N+]([O-])c1cccc(CSc2nnc3ccccn23)c1    34.6 µM (active)
12) CCN(CC)CCCCCC(=O)Nc1ccccc1C(=O)Nc1ccccc1    inactive
13) Cn1c2ccccc2c2nnc(SCC(=O)Nc3cccc(C(=O)O)c3)nc21    30.9 µM (active)
14) O=C(Nc1ccccc1C(=O)Nc1ccccc1)c1ccco1    inactive
15) Cc1ccc(-c2ccc3nnc(SCC(=O)NCC4CCCO4)n3n2)cc1 (stereo not given)    inactive
16) Cc1c(CCOC(=O)c2cc([N+](=O)[O-])ccc2Cl)sc[n+]1CCCCS(=O)(=O)[O-]    inactive
17) O=C(Nc1ccccc1C(=O)NCCN1CCOCC1)c1ccco1    inactive
18) CC(=O)Nc1ccc(S(=O)(=O)NCc2cc(=O)n(C)c(=O)n2C)cc1    30.9 µM (active)
19) Cn1c(N)c(C(=O)CSc2nn(-c3ccc(F)cc3)c(=S)s2)c(=O)n(C)c1=O    21.8 µM (active)
20) COC(=O)[C@@H]1C[C@@]2(O)[C@H](O)[C@H](O)[C@H](O)C[C@H]2N1Cc1cc(F)ccc1F    inactive
